Origin of measurements: patent US20260167721A1

target: T1, recombinant human CD3 epsilon/delta heterodimer (human, UniProt P07766 23-126; P04234 22-105); test: Octet BLI, mAb on FAB2G sensor, hCD3 E/D 200-50 nM; R^2 0.96
T1 construct: Recombinant protein in solution (200-50 nM) in the Octet assay; also called hCD3 E/D; human CD3E/D
T1 sequence (P07766 23-126, stated change not applied, chain 1 of 2): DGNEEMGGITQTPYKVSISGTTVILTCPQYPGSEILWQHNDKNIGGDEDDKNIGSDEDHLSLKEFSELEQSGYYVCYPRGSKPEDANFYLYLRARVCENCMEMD
T1 sequence (P04234 22-105, stated change not applied, chain 2 of 2): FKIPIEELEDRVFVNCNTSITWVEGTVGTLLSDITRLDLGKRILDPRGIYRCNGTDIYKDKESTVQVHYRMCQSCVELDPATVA
The reader will find reported Response values listed item by item below.

binder	Response
ABL-CD3-33 (antibody, V domains shown, Chimeric hybridoma mAb: human V, CH1, upper hinge; mouse middle hinge, CH2, CH3) VH: EVQLVESGGGLVKPGGSLRLSCAASGFTFSSYSMNWVRQAPGKGLEWVSSISRSSSYIYYADSVKGRFTISRDNAKNSLYLQMNSLRAEDTAVYYCAREPPTLGMDYWGQGTLVTVSS VL: NFMLTQPHSVSESPGKTVTISCTRSSGSIASNYVQWYQQRPGSSPTTVIYEDNQRPSGVPDRFSGSIDSSSNSASLTISGLKTEDEADYYCQSYYNSNRVFGGGTKLTVL	0.33
ABL-CD3-27 (antibody, V domains shown, Chimeric hybridoma mAb: human V, CH1, upper hinge; mouse middle hinge, CH2, CH3) VH: QVQLVQSGAEVKKPGASLKVSCKASGYTFTSYYMHWVRQAPGQGLEWMGIINPSNGNTISAQKFQGRVTMTRDTSTSTVYMEMSSLRSEDTAVYYCVRCWGYYVMDVWGQGTTVTVSS VL: QTVVTQEPSFSVSPGGTVTLTCGLNSGSVSTSYYPSWYQQTPGQTPRTLIYSTNTRSSGVPDRFSGSILGNKAALTITGAQADDESDYYCVLYMGSGIWVFGGGTKLTVL	0.39
ABL-CD3-22 (antibody, V domains shown, Chimeric hybridoma mAb: human V, CH1, upper hinge; mouse middle hinge, CH2, CH3) VH: EVQLVESGGGLVQPGGSLRLSCAASGFTFSSYSMNWVRQAPGKGLEWVSYISSSSSTIYYADSVKGRFTISRDNAKNSLYLQMNSLRDEDTAVYYCARDGPVDYGMDVWGQGTTVTVSS VL: SYELTQPPSVSVSPGQTARITCSGDALPKQYTYWCQQKPGQAPVLVIYKDSERPSGIPERFSGSSSGTTVTLTISGVQAEDEADYYCQSADSSGTYRVFGGGTKLTVL	0.08
ABL-CD3-13 (antibody, V domains shown, Chimeric hybridoma mAb: human V, CH1, upper hinge; mouse middle hinge, CH2, CH3) VH: EVQLVESGGGLVQPGGSLRLSCAASGFTFSNYWMSWVRQAPGKGLEWVANIKEDGSEKYYVDSVKGRFTISRDNAKNSLYLQMNSLTAEDTSVYYCARERRTGYFDYWGQGTLVTVSS VL: DIQMTQSPSTLSASVGDRVTITCRASQSISNWLAWYQQKPGKAPNLLIYKASSLESGVPSRFSGSGSGTEFTLTISSLQPDDFANYYCQQYKSYSWTFGQGTKVEIK	0.08
